Test system: HCC1954 breast cancer cells
Test: Payload cell viability dose response (CellTiter-Glo 2.0), HCC1954 (Example 4)
Assay type: cell-based, human
Conditions: Homo sapiens, HCC1954, 144 h; read-out: CTG 144 h GI50
Value kind: log10(GI50) (log10 of the value in nM)
Field: value | Transform: log10 | Quantity: GI50 | Unit: nM

response.value for CO[C@H]([C@@H](C)[C@H]1O[C@]1(C)C[C@H](C)/C=C/C=C(\C)[C@H]1O[C@@H](CC(=O)NCCCC[C@@H](NC(=O)N2CCN(C)CC2)C(=O)O)CC[C@@H]1C)[C@@H](C)O [Compound H19] (field: log10(GI50)) = 3.90

response.value for CO[C@H]([C@@H](C)[C@H]1O[C@]1(C)C[C@H](C)/C=C/C=C(\C)[C@H]1O[C@@H](CC(=O)N[C@@H](CCCOC(=O)N2CCN(C)CC2)C(=O)O)CC[C@@H]1C)[C@@H](C)O [Compound H17] (field: log10(GI50)) = 2.10

response.value for COC(=O)[C@@H](CCCCNC(=O)N1CCN(C)CC1)NC(=O)C[C@H]1CC[C@H](C)[C@@H](/C(C)=C/C=C/[C@@H](C)C[C@@]2(C)O[C@@H]2[C@H](C)[C@@H](OC)[C@@H](C)O)O1 [Compound H21] (field: log10(GI50)) = 1.70

response.value for CO[C@H]([C@@H](C)[C@H]1O[C@]1(C)C[C@H](C)/C=C/C=C(\C)[C@H]1O[C@@H](CC(=O)N[C@H](CCCOC(=O)N2CCN(C)CC2)C(=O)O)CC[C@@H]1C)[C@@H](C)O [Compound H18] (field: log10(GI50)) = 2.64

response.value for COC(=O)[C@@H](CCCCNC(=O)C[C@H]1CC[C@H](C)[C@@H](/C(C)=C/C=C/[C@@H](C)C[C@@]2(C)O[C@@H]2[C@H](C)[C@@H](OC)[C@@H](C)O)O1)NC(=O)N1CCN(C)CC1 [Compound H20] (field: log10(GI50)) = 1.56

response.value for CO[C@H]([C@@H](C)[C@H]1O[C@]1(C)C[C@H](C)/C=C/C=C(\C)[C@H]1O[C@@H](CC(=O)N[C@@H](CCOC(=O)N2CCN(C)CC2)C(=O)O)CC[C@@H]1C)[C@@H](C)O [Compound H14] (field: log10(GI50)) = 2.83

response.value for CO[C@H]([C@@H](C)[C@H]1O[C@]1(C)C[C@H](C)/C=C/C=C(\C)[C@H]1O[C@@H](CC(=O)N[C@@H](CCNC(=O)N2CCN(C)CC2)C(=O)O)CC[C@@H]1C)[C@@H](C)O [Compound H15] (field: log10(GI50)) = 1.07

response.value for CO[C@H]([C@@H](C)[C@H]1O[C@]1(C)C[C@H](C)/C=C/C=C(\C)[C@H]1O[C@@H](CC(=O)N[C@@H](COC(=O)N2CCN(C)CC2)C(=O)O)CC[C@@H]1C)[C@@H](C)O [Compound H13] (field: log10(GI50)) = 2.32

response.value for COC(=O)[C@H](CCNC(=O)N1CCN(C)CC1)NC(=O)C[C@H]1CC[C@H](C)[C@@H](/C(C)=C/C=C/[C@@H](C)C[C@@]2(C)O[C@@H]2[C@H](C)[C@@H](OC)[C@@H](C)O)O1 [Compound H16] (field: log10(GI50)) = 0.95
